LD50 overview
procedure summary: Therapeutic index evaluation (LD50/ED50)
Format: in vivo
condition description: in vivo; half lethal dose; read-out: LD50
Record the value in mg/kg, omitting the unit from your answer.

CNCCC(Oc1cccc2c1OCO2)c1ccccc1.O=C(O)C(=O)O (stereo not shown); 178
CNCC[C@H](Oc1cccc2ccccc12)c1cccs1 [duloxetine, reference compound]; 489
CN(C)CCC(Oc1cccc2c1OCO2)c1ccc(F)cc1.O=C(O)C(=O)O (stereo not shown); 355

Kindly review the next compound as well.
Exercise: Return LD50 (reported value) for this compound: CNCCC(Oc1cccc2c1OCO2)c1cccc(OC)c1.O=C(O)C(=O)O (stereo not shown)
Solution: 320

====

Entries and their therapeutic index (swimming)
procedure summary: Therapeutic index evaluation (LD50/ED50)
Type: in vivo
condition description: LD50/ED50, swimming ED50
Lab note: jot the number down without any unit.

CNCCC(Oc1cccc2c1OCO2)c1ccccc1.O=C(O)C(=O)O (stereo not shown); 88.8
CNCCC(Oc1cccc2c1OCO2)c1cccs1 (stereo not shown) [ammuxetine, reference compound]; 68.9
CNCCC(Oc1cccc2c1OCO2)c1cccc(OC)c1.O=C(O)C(=O)O (stereo not shown); 60.7

Please find the next molecule below.
Exercise: Given CN(C)CCC(Oc1cccc2c1OCO2)c1ccc(F)cc1.O=C(O)C(=O)O (stereo not shown) , respond with its therapeutic index (swimming).
Solution: 155.6

====

Each entry below lists one item and its recorded ratio of the compound after incubation in diluted hydrochloric acid at 37° C. for 2 h value.
procedure summary: Acid stability evaluation in diluted hydrochloric acid
Type: physicochemical
condition description: 0.1 mol/L hydrochloric acid
Numeric only. Scale: %

Guide cases for ratio of the compound after incubation in diluted hydrochloric acid at 37° C. for 2 h, answers given:
CNCCC(Oc1cccc2c1OCO2)c1cccc(OC)c1.O=C(O)C(=O)O (stereo not shown); 99
CNCC[C@H](Oc1cccc2ccccc12)c1cccs1 [duloxetine, reference compound]; 18
CN(C)CCC(Oc1cccc2c1OCO2)c1ccc(F)cc1.O=C(O)C(=O)O (stereo not shown); 99

Exercise: Output measured ratio of the compound after incubation in diluted hydrochloric acid at 37° C. for 2 h for this item: CNCCC(Oc1cccc2c1OCO2)c1ccccc1.O=C(O)C(=O)O (stereo not shown)
Solution: 99

Exercise: Return ratio of the compound after incubation in diluted hydrochloric acid at 37° C. for 2 h for the following molecule: CNCCC(Oc1cccc2c1OCO2)c1cccs1 (stereo not shown) [ammuxetine, reference compound]
Solution: 44

Exercise: Specify reported ratio of the compound after incubation in diluted hydrochloric acid at 37° C. for 2 h for the molecule shown: Cc1cccc(C(CCN(C)C)Oc2cccc3c2OCO3)c1.O=C(O)C(=O)O (stereo not shown)
Solution: 99

Exercise: Look up and state reported ratio of the compound after incubation in diluted hydrochloric acid at 37° C. for 2 h for CNCCC(Oc1cccc2c1OCO2)c1ccc(F)cc1.O=C(O)C(=O)O (stereo not shown)
Solution: 99

====

System: mice
procedure summary: Mice tail suspension test (acquired despair experiment)
Format: in vivo
condition description: 10 mg/kg, i.g. (gavage), oxalate form
Just a reminder that ties go to Not satisfied: only immobilized time of mice tail suspension strictly below 30 s counts as Satisfied.

Below are worked cases with known answers.
CNCC[C@H](Oc1cccc2ccccc12)c1cccs1 [duloxetine, reference compound]; Not satisfied
CN(C)CCC(Oc1cccc2c1OCO2)c1ccc(F)cc1.O=C(O)C(=O)O (stereo not drawn) [compound 3]; Satisfied
CNCCC(Oc1cccc2c1OCO2)c1ccccc1.O=C(O)C(=O)O (stereo not drawn) [compound 2]; Satisfied

Consider the additional compound presented here.
Exercise: Below 30 s on immobilized time of mice tail suspension? Entry CNCCC(Oc1cccc2c1OCO2)c1cccc(OC)c1.O=C(O)C(=O)O (stereo not drawn) [compound 12]
Solution: Not satisfied

====

procedure summary: Therapeutic index evaluation (LD50/ED50)
Assay type: in vivo
condition description: LD50/ED50, tail suspension ED50
outcome measure: therapeutic index (tail suspension)
// return just the number, without any unit appended

CN(C)CCC(Oc1cccc2c1OCO2)c1ccc(F)cc1.O=C(O)C(=O)O (centres unmarked) [compound 3]; 82.2
CNCCC(Oc1cccc2c1OCO2)c1ccccc1.O=C(O)C(=O)O (centres unmarked) [compound 2]; 25.2
CNCCC(Oc1cccc2c1OCO2)c1cccc(OC)c1.O=C(O)C(=O)O (centres unmarked) [compound 12]; 37.4
CNCCC(Oc1cccc2c1OCO2)c1cccs1 (centres unmarked) [ammuxetine, reference compound]; 45.7

Switching to the query record.
Exercise: Using known records, supply therapeutic index (tail suspension) for CNCC[C@H](Oc1cccc2ccccc12)c1cccs1 [duloxetine, reference compound]
Solution: 82.1
